- Test system: Bacteroides clarus
- Experiment description: growth AUC relative to DMSO control (median of replicates) (fraction); higher = more growth (less inhibition), active = hit call of the paper
- Test settings: 20 µM; 24 h
Outcome measure: growth AUC
Give bare numbers.

                     compound  numeric_value
0  CCNc1nc(Cl)nc(NC(C)(C)C)n1          0.977

Give one value of growth AUC per listed compound.
1. CC(C)OP(=O)(OC(C)C)SCc1ccccc1
2. CCOP(=O)(NC(C)C)Oc1ccc(S(C)=O)c(C)c1 (configuration not stated)
3. CCOC(=O)C(C)OC(=O)c1cc(Oc2ccc(C(F)(F)F)cc2Cl)ccc1[N+](=O)[O-] (configuration not stated)
4. C=CCOC(Cn1ccnc1)c1ccc(Cl)cc1Cl.O=S(=O)(O)O (configuration not stated)
5. CN(C)C(=O)Nc1cccc(C(F)(F)F)c1
6. C[C@@H]1C[C@@H]([C@H](O)CC2CC(=O)NC(=O)C2)C(=O)[C@@H](C)C1
7. CC(C)(C)C(=O)C(Oc1ccc(Cl)cc1)n1cncn1 (configuration not stated)
8. COP(=S)(Oc1cc(Cl)c(Br)cc1Cl)c1ccccc1 (configuration not stated)

Key:
1: 0.99; 2: 1.04; 3: 0.931; 4: 0.925; 5: 0.983; 6: 1.02; 7: 1; 8: 0.928

Give one value of growth AUC per listed compound.
1. Nc1c(Cl)cc([N+](=O)[O-])cc1Cl
2. CCc1ccc(C(=O)NN(C(=O)c2cc(C)cc(C)c2)C(C)(C)C)cc1
3. COP(=S)(OC)Oc1nc(Cl)c(Cl)cc1Cl
4. CCc1nn(C)c(C(=O)NCc2ccc(Oc3ccc(C)cc3)cc2)c1Cl
5. ClCC1C(CCl)C2(Cl)C(Cl)=C(Cl)C1(Cl)C2(Cl)Cl (configuration not stated)
6. CC#Cc1cc(C)nc(Nc2ccccc2)n1

Key:
[0.973, 0.993, 1, 0.932, 0.999, 0.991]

Give one value of growth AUC per listed compound.
1. CNC(=O)O/N=C(\C)C(C)S(C)=O (configuration not stated)
2. COP(=O)(OC)Oc1ccc(SC)c(C)c1
3. Nc1ccc(Cc2ccc(N)c(Cl)c2)cc1Cl
4. CC(C)(C)C(O)/C(=C/c1ccc(Cl)cc1Cl)n1cncn1 (mixture of isomers)
5. CCCN(CC1CC1)c1c([N+](=O)[O-])cc(C(F)(F)F)cc1[N+](=O)[O-]
6. COc1nc(C)nc(NC(=O)NS(=O)(=O)c2ccccc2CCC(F)(F)F)n1

Key:
0.976
0.978
0.981
0.947
1.03
1.01

// `CC(C)OC(=O)C(C(=O)OC(C)C)=C1SCCS1` : growth AUC value = 1.01

###

- Tested on: Escherichia coli IAI1
- Experiment description: growth AUC relative to DMSO control (median of replicates) (fraction); higher = more growth (less inhibition), active = hit call of the paper
- Test settings: 20 µM; 24 h
Task for the reader: assign each of the following compounds its reported growth AUC.
Answers are plain numbers.

Worked cases, growth AUC given:
                                   compound  outcome_measure  numeric_value
0                  CC(C)N(C(=O)CCl)c1ccccc1       growth AUC           1.02
1             CCOP(=S)(OCC)SCSP(=S)(OCC)OCC       growth AUC           1.01
2  CCOC(=O)c1ccccc1S(=O)(=O)NC(=O)Nc1nc(Cl)cc(OC)n1       growth AUC           1.02
3                           Nc1cccc(Cl)c1Cl       growth AUC           1.03
4             CC(C)N1C(=O)c2ccccc2NS1(=O)=O       growth AUC           0.97
5               c1ccc2c(c1)ccc1c3ccccc3sc21       growth AUC              1
6                    CNC(=O)Oc1cccc2ccccc12       growth AUC          0.982
7  CCOC(=O)C(Cl)Cc1cc(-n2nc(C)n(C(F)F)c2=O)c(F)cc1Cl (centres undefined)       growth AUC          0.941
8               CCOP(=S)(OCC)SCCS(=O)(=O)CC       growth AUC          0.994
9                          CP(=O)(O)CC(=O)O       growth AUC              1

Give one value of growth AUC per listed compound.
1. CCOP(=O)(SC(C)CC)N1CCSC1=O (centres undefined)
2. COP(=S)(OC)Oc1ccc(S(C)=O)c(C)c1 (centres undefined)
3. Nc1c(Cl)c(Cl)c(Cl)c(Cl)c1Cl
4. O=c1[nH]c2c(c(=O)n1C1CCCCC1)CCC2
5. ClC1=C(Cl)C2(Cl)[C@H]3[C@@H]4O[C@@H]4[C@H](Cl)[C@H]3C1(Cl)C2(Cl)Cl (single isomer, unassigned; isomer b)

Key:
1. 0.986
2. 1.04
3. 0.95
4. 0.987
5. 0.983

Give one value of growth AUC per listed compound.
1. Cc1cccc(C)c1N(Cn1cccn1)C(=O)CCl
2. CC1=C(C(=O)Nc2ccccc2)S(=O)(=O)CCO1
3. CC1(C)[C@H](C(=O)O[C@H](C#N)c2cccc(Oc3ccccc3)c2)[C@@H]1C=C(Br)Br
4. CNc1cnn(-c2cccc(C(F)(F)F)c2)c(=O)c1Cl

Key:
0.952
0.994
0.979
0.981
